System: MMACSF
method-summary: relative viability (cell count relative to DMSO-treated control) (fraction of DMSO control); higher = more viable cells / less drug effect
run-parameters: 24 h; 0.00316 µM
Field: label. Allowed values: yes (1) (relative viability < 1) or no (0) (relative viability >= 1).

>>> df
                                   compound  target_of_assay  category
0  Cc1ccc(NC(=O)c2cccc(C(C)(C)C#N)c2)cc1Nc1ccc2ncn(C)c(=O)c2c1 [AZ628]           MMACSF    no (0)
1  Cn1cnc2c(F)c(Nc3ccc(Br)cc3Cl)c(C(=O)NOCCO)cc21 [Selumetinib]           MMACSF    no (0)
2  CCCS(=O)(=O)Nc1ccc(F)c(C(=O)c2c[nH]c3ncc(-c4ccc(Cl)cc4)cc23)c1F [Vemurafenib]           MMACSF   yes (1)
3  CN(C)CCOc1ccc(-c2nc(-c3ccncc3)c(-c3ccc4c(c3)CC/C4=N\O)[nH]2)cc1           MMACSF    no (0)

====

Tested on: LOXIMVI
method-summary: apoptotic fraction of cells (caspase-3 NucView488 positive); higher = more apoptosis
run-parameters: 48 h; 0.1 µM
Collected apoptotic fraction of cells values appear next to each entry.
measured-metric: apoptotic fraction of cells

In [3]: df
Out[3]:
                                   compound  target_of_assay              measured_metric  measured_value
0  CCCS(=O)(=O)Nc1ccc(F)c(C(=O)c2c[nH]c3ncc(Cl)cc23)c1F [PLX4720]          LOXIMVI  apoptotic fraction of cells          0.0482
1  Cc1ccc(NC(=O)c2cccc(C(C)(C)C#N)c2)cc1Nc1ccc2ncn(C)c(=O)c2c1 [AZ628]          LOXIMVI  apoptotic fraction of cells          0.0479
2  CN(C)CCOc1ccc(-c2nc(-c3ccncc3)c(-c3ccc4c(c3)CC/C4=N\O)[nH]2)cc1          LOXIMVI  apoptotic fraction of cells          0.0471
3  Cn1cnc2c(F)c(Nc3ccc(Br)cc3Cl)c(C(=O)NOCCO)cc21 [Selumetinib]          LOXIMVI  apoptotic fraction of cells          0.0589
4  CCCS(=O)(=O)Nc1ccc(F)c(C(=O)c2c[nH]c3ncc(-c4ccc(Cl)cc4)cc23)c1F [Vemurafenib]          LOXIMVI  apoptotic fraction of cells          0.0455

====

Tested on: C32
method-summary: relative viability (cell count relative to DMSO-treated control) (fraction of DMSO control); higher = more viable cells / less drug effect
run-parameters: 24 h; 0.0316 µM
Reported relative viability values follow for various compounds
measured-metric: relative viability

In [3]: df
Out[3]:
                               entry_smiles  target_of_assay     measured_metric  measured_value
0  CCCS(=O)(=O)Nc1ccc(F)c(C(=O)c2c[nH]c3ncc(Cl)cc23)c1F              C32  relative viability            1.04
1  Cc1ccc(NC(=O)c2cccc(C(C)(C)C#N)c2)cc1Nc1ccc2ncn(C)c(=O)c2c1              C32  relative viability            1.05
2  Cn1cnc2c(F)c(Nc3ccc(Br)cc3Cl)c(C(=O)NOCCO)cc21              C32  relative viability               1
3  CN(C)CCOc1ccc(-c2nc(-c3ccncc3)c(-c3ccc4c(c3)CC/C4=N\O)[nH]2)cc1              C32  relative viability            1.09
4  CCCS(=O)(=O)Nc1ccc(F)c(C(=O)c2c[nH]c3ncc(-c4ccc(Cl)cc4)cc23)c1F              C32  relative viability            1.03
